assay: logP determination by HPLC (reversed-phase C18), EEC Directive 79/831 Annex V.A 8; assay type: physicochemical; details: HPLC reversed-phase column (C 18), 43° C.
recorded metric: logP (pH 2.3)

>>> df
                                   molecule  experimental_value
0  Cc1cc(-c2ccccc2)nn1C1=C(O)C(C)(C(C)C)OC1=O (stereo not drawn)                1.50
1  Cc1cc(-c2ccc(Cl)cc2)nn1C1=C(O)C2(CCC(C(F)(F)F)CC2)OC1=O (stereo not drawn)                2.74
2  Cc1cc(-c2ccc(Cl)cc2)nn1C1=C(O)C(C)(C)OC1=O                1.74

I: CCC1(C)OC(=O)C(n2nc(-c3ccc(Br)cc3)cc2C)=C1O (stereo not drawn)
II: Cc1cc(-c2ccc(Cl)cc2)nn1C1=C(O)C2(CCOCC2)OC1=O
Which value of logP (pH 2.3) is smaller, the one for I or the one for II ? Output the label that corresponds to your choice.
II

1: Cc1cc(-c2cccc(C(F)(F)F)c2)nn1C1=C(O)C(C)(CC(C)(C)C)OC1=O (stereo not drawn)
2: Cc1cc(-c2ccc(Cl)cc2)nn1C1=C(O)C2(CCCOC2)OC1=O (stereo not drawn)
Which is greater in logP (pH 2.3), the first item 1 or the second item 2 ? Output the label that corresponds to your choice.
1
